- Test system: human platelet rich plasma (PRP)
- METHOD SUMMARY: ADP induced platelet aggregation assay
- ASSAY CONDITIONS: Homo sapiens, Platelet, 5 min, read-out: PA IC50 (μM) @ 10 μM ADP, human PRP, 10 μM ADP, AUC at 5 minute
VALUE TYPE: IC50 (µM)
Provide only the numeric value, understood in µM.

Fill in IC50 for record CCC1(CC)CN(c2ccccc2NC(=O)Nc2ccc(OC(F)(F)F)cc2)c2c(O)ccc(C=O)c21
0.9

Fill in IC50 for record CC(C)(C)CN1CCC(c2ccc(NC(=O)Nc3ccccc3N3CC(C)(C)c4c(-c5ccc(Cl)cc5)c(F)cc(O)c43)cc2)CC1
0.31

Fill in IC50 for record CC1(C)CN(c2ccccc2NC(=O)Nc2nc3ccc(Cl)cc3s2)c2c(O)ccc(-c3ccc(F)cc3)c21
0.18

Fill in IC50 for record CCC1(CC)CN(c2ccccc2NC(=O)Nc2nc3ccc(F)cc3s2)c2c(O)ccc(F)c21
0.37

Fill in IC50 for record CC1(C)CN(c2ccccc2NC(=O)Nc2nc3ccc(Cl)nc3s2)c2c(O)cc(F)c(-c3nc4ccc(F)cc4s3)c21
0.33

Fill in IC50 for record CC1(C)CN(c2ccccc2NC(=O)Nc2nc3ccc(F)cc3s2)c2c(O)ccc(-c3ccc(F)cc3)c21
0.08

Fill in IC50 for record CC1(C)CN(c2ccccc2NC(=O)Nc2ccc(OC(F)(F)F)cc2)c2c(O)ccc(-c3ccccc3F)c21
0.08

Fill in IC50 for record CC(C)(C)Sc1ccc(O)c2c1C(C)(C)CN2c1ccccc1NC(=O)Nc1ccc(OC(F)(F)F)cc1
1.05

Fill in IC50 for record CC1(C)CN(c2ccccc2NC(=O)Nc2ccc(OC(F)(F)F)cc2)c2c(O)cc(F)c(-c3cnc(Cl)cn3)c21
0.26

Fill in IC50 for record CC1(C)CN(c2ccccc2NC(=O)Nc2ccc(OC(F)(F)F)cc2)c2c(O)cc(F)c(C3CC3)c21
0.42

Fill in IC50 for record CC1(C)CN(c2ccccc2NC(=O)Nc2csc(Cl)n2)c2c(O)cc(F)c(-c3ccc(C(F)(F)F)cn3)c21
0.1

Fill in IC50 for record CC1(C)CN(c2ccccc2NC(=O)Nc2ccc(OC(F)(F)F)cc2)c2c(O)ccc(-c3nc4ccccc4o3)c21
0.99

Fill in IC50 for record CCOC(=O)C1(C)CN(c2ccccc2NC(=O)Nc2nc3ccc(Cl)nc3s2)c2c(O)ccc(Cl)c21 (centres unmarked)
0.61

Fill in IC50 for record CC1(C)CN(c2ccccc2NC(=O)Nc2ccc(OC(F)(F)F)cc2)c2c(O)ccc(-c3nc4ccc(F)cc4s3)c21
0.32

---

- Test system: human platelet rich plasma (PRP)
- METHOD SUMMARY: ADP induced platelet aggregation assay
- ASSAY CONDITIONS: Homo sapiens, Platelet, 5 min, read-out: PA IC50 (μM) @ 10 μM ADP, human PRP, 10 μM ADP, AUC at 5 minute
Where a name gives a salt, the structure may show the parent alone.
Doc: threshold 0.4 µM (exclusive). Items with IC50 beneath it return class 1; others return class 0.

Consider CC(C)n1nc(-c2c(F)cc(O)c3c2C(C)(C)CN3c2ccccc2NC(=O)Nc2nc3ccc(Cl)cc3s2)cc1C(F)(F)F . Does its IC50 lie strictly below 0.4 µM?
class 1

Consider CCOC(=O)C1(C)CN(c2ccccc2NC(=O)Nc2ccc(OC(F)(F)F)cc2)c2c(O)ccc(Cl)c21 (centres unmarked) . Does its IC50 lie strictly below 0.4 µM?
class 0

Consider CC1(C)CN(c2ccccc2NC(=O)Nc2ccc(OC(F)(F)F)cc2)c2c(O)ccc(-c3cc(F)nc(F)c3)c21 [Example 111, TFA] . Does its IC50 lie strictly below 0.4 µM?
class 1

Consider CC1(C)CN(c2ccccc2NC(=O)Nc2nc3ccc(F)cc3s2)c2c(O)cc(F)c(-c3nc4ccc(F)cc4s3)c21 . Does its IC50 lie strictly below 0.4 µM?
class 1

Consider CC1(C)CN(c2ccccc2NC(=O)Nc2ccc(OC(F)(F)F)cc2)c2c(O)cc(F)c(-c3ccc(C#N)cc3)c21 . Does its IC50 lie strictly below 0.4 µM?
class 0

Consider CCC1(CC)CN(c2ccccc2NC(=O)Nc2ccc(OC(F)(F)F)cc2)c2c(O)cc(F)cc21 . Does its IC50 lie strictly below 0.4 µM?
class 0

Consider CC1(C)CN(c2ccccc2NC(=O)Nc2ccc(OC(F)(F)F)cc2)c2c(O)cc(F)c(-c3ccc(F)cn3)c21 . Does its IC50 lie strictly below 0.4 µM?
class 1

Consider CC1(C)CN(c2ccccc2NC(=O)Nc2csc(Cl)n2)c2c(O)ccc(Br)c21 . Does its IC50 lie strictly below 0.4 µM?
class 1

Consider CC(C)CCn1cc(-c2c(F)cc(O)c3c2C(C)(C)CN3c2ccccc2NC(=O)Nc2ccc(OC(F)(F)F)cc2)cn1 . Does its IC50 lie strictly below 0.4 µM?
class 1

Consider CCC1(CC)CN(c2ccccc2NC(=O)Nc2csc(Cl)n2)c2c(O)ccc(Cl)c21 . Does its IC50 lie strictly below 0.4 µM?
class 1

Consider CC1(C)CN(c2ccccc2NC(=O)Nc2csc(Cl)n2)c2c(O)cc(F)c(-c3ccc(F)cc3)c21 . Does its IC50 lie strictly below 0.4 µM?
class 1

Consider CC1(C)CN(c2ccccc2NC(=O)Nc2ccc(OC(F)(F)F)cc2)c2c(O)ccc(-c3cncc(Cl)c3)c21 . Does its IC50 lie strictly below 0.4 µM?
class 0

Consider CC(C)(C)c1nc(-c2c(F)cc(O)c3c2C(C)(C)CN3c2ccccc2NC(=O)Nc2ccc(OC(F)(F)F)cc2)co1 . Does its IC50 lie strictly below 0.4 µM?
class 0

Consider CC1(C)CN(c2ccccc2NC(=O)Nc2ccc(OC(F)(F)F)cc2)c2c(O)ccc(-c3cncc(F)c3)c21 . Does its IC50 lie strictly below 0.4 µM?
class 0

Entry source: patent US9540323B2
